Reported self-splicing fitness (ln) values for a set of sequences
# experiment: self-splicing fitness, log relative to wild type (ln ratio); higher = more splicing; Tetrahymena group I intron in knt gene, E. coli kanamycin selection, DiMSum; sequences stand for … in CUCUCU…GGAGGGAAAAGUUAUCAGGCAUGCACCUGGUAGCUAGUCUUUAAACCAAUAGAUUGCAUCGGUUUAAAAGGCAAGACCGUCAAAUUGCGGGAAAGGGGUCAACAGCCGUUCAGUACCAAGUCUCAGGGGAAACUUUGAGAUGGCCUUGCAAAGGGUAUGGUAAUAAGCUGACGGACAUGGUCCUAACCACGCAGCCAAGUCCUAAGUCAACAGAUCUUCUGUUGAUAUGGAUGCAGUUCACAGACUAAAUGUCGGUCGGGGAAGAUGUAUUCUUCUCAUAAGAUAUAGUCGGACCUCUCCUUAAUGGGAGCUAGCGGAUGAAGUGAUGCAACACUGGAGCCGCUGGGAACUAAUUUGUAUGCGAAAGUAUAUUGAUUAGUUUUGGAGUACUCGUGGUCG;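 also: selection with 25 µg/mL kanamycin versus none on LB agar overnight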
# condition-set: 37 °C
readout-kind: self-splicing fitness (ln)

{"columns": ["residues", "observed-result"],
 "data": [
  ["UCGGAGCAAUAUUACGGAAG", -0.371],
  ["CAACAGCAAUAUUACGUCCG", 0.513],
  ["GGCCAGCAAUAUUACGAAAU", -1.04],
  ["CUCGAGCAAUAUUACGGUGG", -1.75],
  ["CCGAAGCAAUAUUACGAUUA", -2.31],
  ["AUCGAGCAAUAUUACGGCGA", -0.629],
  ["CAUUAGCAAUAUUACGUAUC", -2.26],
  ["CUCAAGCAAUAUUACGUGGC", -2.24],
  ["AACGAGCAAUAUUACGUCGA", -2.06],
  ["GAGGAGCAAUAUUACGAAAG", -2.01],
  ["AGGCAGCAAUAUUACGGCGC", 0.292],
  ["AUGUAGCAAUAUUACGCGGG", -2.37],
  ["CGGUAGCAAUAUUACGGGUG", 0.146],
  ["UAUUAGCAAUAUUACGGCAC", -0.983],
  ["AGCCAGCAAUAUUACGUCGA", -2.88],
  ["UUACAGCAAUAUUACGUGGA", -1.41],
  ["GUGCAGCAAUAUUACGAAGU", -0.554],
  ["AACGAGCAAUAUUACGGCGC", -1.31],
  ["CCUCAGCAAUAUUACGCUAU", -2.22],
  ["CAAAAGCAAUAUUACGCAUG", -0.824],
  ["UGUUAGCAAUAUUACGAUAU", -0.289],
  ["UGACAGCAAUAUUACGCAUA", 0.0999]
]}
